Provenance of the data: the supplement of paper PMC12645437

- TESTED ON: T1, CRBN, Q96SW2;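 note: pooled lentiviral library of zinc finger degron-EGFP fusions in mCherry-positive Jurkat cells, FACS-sorted after compound exposure, with degron abundance counted by next-generation sequencing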
- T1 chain: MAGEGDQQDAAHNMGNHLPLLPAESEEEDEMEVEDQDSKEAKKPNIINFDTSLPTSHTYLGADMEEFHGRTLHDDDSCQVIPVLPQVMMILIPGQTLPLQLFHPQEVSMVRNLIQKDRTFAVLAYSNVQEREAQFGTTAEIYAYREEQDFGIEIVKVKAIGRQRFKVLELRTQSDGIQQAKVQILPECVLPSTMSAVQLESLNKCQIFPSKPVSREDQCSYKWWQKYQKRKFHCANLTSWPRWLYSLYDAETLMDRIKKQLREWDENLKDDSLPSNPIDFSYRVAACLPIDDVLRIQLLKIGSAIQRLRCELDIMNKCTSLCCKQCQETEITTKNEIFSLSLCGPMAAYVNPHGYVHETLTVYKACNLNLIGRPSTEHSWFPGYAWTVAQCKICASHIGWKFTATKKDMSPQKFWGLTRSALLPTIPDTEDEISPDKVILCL
- ASSAY METHOD TEXT: log2 fold change of degron read counts, EGFP-low vs EGFP+ sorted cells (limma voom), compound-induced degradation; higher = more compound-induced degradation of the degron-EGFP fusion; degrons are variants of IKZF1/3 zinc finger 2; compound dose not given here
- SETTINGS: Jurkat; 18 h; compound: compound 19 (5-tert-butyl-thalidomide)
In all, about 8,300 sequences were measured (“log2 fold change of degron read counts, EGFP-low vs EGFP+ sorted cells (limma voom), compound-induced degradation”: median about -1.1, highest 2% from about 3.2 on). The full list was thinned out, with the highest values kept by preference.
In this section we review reported log2 fold change of degron read counts values for a set of sequences.

SEQUENCE INPUT: FFCEICGHSFTQKGNLLRHIKL [46F_47F_49E_50I_52G_53H_54S_55F_67L_, Q9UKT9]
log2 fold change of degron read counts: -2.6
//
SEQUENCE INPUT: LMCEICGFKCTQKGNLLRHIKL [46L_47M_49E_50I_52G_53F_54K_55C_67L_, Q9UKT9]
log2 fold change of degron read counts: 0.00993
//
SEQUENCE INPUT: FNCEICGALFTQKGNLLRHIKL [46F_47N_49E_50I_52G_53A_54L_55F_67L_, Q9UKT9]
log2 fold change of degron read counts: 0.13
//
SEQUENCE INPUT: FVCEQCGATFTQKGNLLRHIKL [46F_47V_49E_50Q_52G_53A_54T_55F_67L_, Q9UKT9]
log2 fold change of degron read counts: -2.6
//
SEQUENCE INPUT: FRCEVCGARFTQKGNLLRHIKL [46F_47R_49E_50V_52G_53A_54R_55F_67L_, Q9UKT9]
log2 fold change of degron read counts: -1.49
//
SEQUENCE INPUT: FHCPQCGACFTQKGNLLRHIKL [46F_47H_49P_50Q_52G_53A_54C_55F_67L_, Q9UKT9]
log2 fold change of degron read counts: -0.735
//
SEQUENCE INPUT: FLCPICGHCFTQKGNLLRHIKL [46F_47L_49P_50I_52G_53H_54C_55F_67L_, Q9UKT9]
log2 fold change of degron read counts: -2.45
//
SEQUENCE INPUT: FFCEICGASFTQKGNLLRHIKL [46F_47F_49E_50I_52G_53A_54S_55F_67L_, Q9UKT9]
log2 fold change of degron read counts: 3.6
//
SEQUENCE INPUT: FSCEVCGARFTQKGNLLRHIKL [46F_47S_49E_50V_52G_53A_54R_55F_67L_, Q9UKT9]
log2 fold change of degron read counts: 3.53
//
SEQUENCE INPUT: FWCEICGASFTQKGNLLRHIKL [46F_47W_49E_50I_52G_53A_54S_55F_67L_, Q9UKT9]
log2 fold change of degron read counts: 3.83
//
SEQUENCE INPUT: FQCNQCGAFFTQKGNLLRHIKL [46F_47Q_49N_50Q_52G_53A_54F_55F_67L_, Q9UKT9]
log2 fold change of degron read counts: -2.56
//
SEQUENCE INPUT: FHCEVCGARFTQKGNLLRHIKL [46F_47H_49E_50V_52G_53A_54R_55F_67L_, Q9UKT9]
log2 fold change of degron read counts: 2.39
//
SEQUENCE INPUT: FVCEICGASFTQKGNLLRHIKL [46F_47V_49E_50I_52G_53A_54S_55F_67L_, Q9UKT9]
log2 fold change of degron read counts: 1.36
//
SEQUENCE INPUT: FECEQCGAGFTQKGNLLRHIKL [46F_47E_49E_50Q_52G_53A_54G_55F_67L_, Q9UKT9]
log2 fold change of degron read counts: -1.66
//
SEQUENCE INPUT: FYCEICGRYFTQKGNLLRHIKL [46F_47Y_49E_50I_52G_53R_54Y_55F_67L_, Q9UKT9]
log2 fold change of degron read counts: 1.09
